Data origin: patent US9440983B2

target: TRPC5 channel (Homo sapiens)
Construct: expressed in transfected cells; host or cells: HEK293/TREx (Invitrogen), stably transfected, tetracycline-induced
Sequence (Q9UL62 1-973): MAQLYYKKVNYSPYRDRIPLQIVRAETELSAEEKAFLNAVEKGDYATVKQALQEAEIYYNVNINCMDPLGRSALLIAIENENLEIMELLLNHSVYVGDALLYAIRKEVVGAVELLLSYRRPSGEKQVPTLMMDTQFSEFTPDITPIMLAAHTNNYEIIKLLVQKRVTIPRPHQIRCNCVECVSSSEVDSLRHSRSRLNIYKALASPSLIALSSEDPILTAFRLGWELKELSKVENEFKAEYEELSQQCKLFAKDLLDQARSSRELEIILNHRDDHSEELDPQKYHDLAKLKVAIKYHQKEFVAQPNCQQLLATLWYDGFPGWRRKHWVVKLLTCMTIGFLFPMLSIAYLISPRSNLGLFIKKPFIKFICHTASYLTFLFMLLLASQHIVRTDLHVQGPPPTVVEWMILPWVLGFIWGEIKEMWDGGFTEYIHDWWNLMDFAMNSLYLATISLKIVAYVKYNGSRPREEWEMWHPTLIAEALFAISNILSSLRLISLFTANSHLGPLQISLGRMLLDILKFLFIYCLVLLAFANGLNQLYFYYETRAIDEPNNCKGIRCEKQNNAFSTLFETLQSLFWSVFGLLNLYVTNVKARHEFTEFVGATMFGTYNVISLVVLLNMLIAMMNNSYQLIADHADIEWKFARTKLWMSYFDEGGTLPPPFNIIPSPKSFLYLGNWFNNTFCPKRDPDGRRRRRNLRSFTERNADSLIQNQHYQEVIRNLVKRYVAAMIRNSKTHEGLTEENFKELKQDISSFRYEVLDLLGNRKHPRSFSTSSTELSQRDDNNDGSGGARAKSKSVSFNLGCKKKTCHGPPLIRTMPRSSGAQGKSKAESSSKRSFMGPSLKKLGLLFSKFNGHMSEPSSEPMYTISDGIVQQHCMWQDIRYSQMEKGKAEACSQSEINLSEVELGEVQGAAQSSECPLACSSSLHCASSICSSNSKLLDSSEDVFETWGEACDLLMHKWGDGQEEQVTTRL
test-name: High throughput screening assay: Fluo4 cell-based fluorescence detection of intracellular Ca2+ rise
measurement-conditions: HEK293/TREx cells inducibly expressing TRPC5, high-Ca2+ Ringer (14 mM Ca2+), 7 concentrations in triplicate
quantity-measured: pIC50
Reminder that pIC50 is minus the log10 of a molar concentration.

// worked examples, pIC50 included
compound="Cn1c(=O)n(CCCO)c(=O)c2c1c(-c1cccc(Cl)c1)cn2Cc1ccc(Cl)cc1 [Compound 37]" target="TRPC5 channel (Homo sapiens)" quantity_measured=pIC50 reported_result=6.39
compound="Cn1c(-c2cccc(OC(F)(F)F)c2)cc2c1c(=O)n(CCCO)c(=O)n2C [Compound 32]" target="TRPC5 channel (Homo sapiens)" quantity_measured=pIC50 reported_result=5.53

IN: pIC50 for Cc1c(-c2cccc(OC(F)(F)F)c2)n(Cc2ccc(Cl)cc2)c2c(=O)n(CCCO)c(=O)n(C)c12 [Compound 29] ?
OUT: 6.38

IN: // query pIC50 value for entry Cc1c(-c2cccc(OC(F)(F)F)c2)[nH]c2c(=O)n(CCCO)c(=O)n(C)c12 [Compound 36]
OUT: 5.12

IN: Data request, read-out pIC50, for Cc1cn(Cc2ccc(Cl)cc2)c2c(=O)n(CCCO)c(=O)n(C)c12 [Compound 34]
OUT: 5.51

IN: Name the reported pIC50 value associated with the compound Cn1c(=O)n(CCCO)c(=O)c2c1cc(-c1cccc(Cl)c1)n2Cc1ccc(Cl)cc1 [Compound 30]
OUT: 6.30

IN: Returns the measured pIC50 for the input compound. Input: Cn1c(=O)n(CCCO)c(=O)c2c1cc(-c1cccc(OC(F)(F)F)c1)n2Cc1ccc(Cl)cc1 [Compound 35]
OUT: 6.11

IN: Please look up its pIC50: Cc1c(-c2cccc(OC(F)(F)F)c2)n(C)c2c(=O)n(CCCO)c(=O)n(C)c12 [Compound 33]
OUT: 6.08
